# credit: the NIST ThermoML archive (doi:10.1016/j.jct.2016.02.016)

Overview of recorded mass density for various compounds
Conditions: 303.15 K; 101.33 kPa; Liquid; Vibrating tube method
# value in kg/m3; strip the unit string

# annotated cases, reported mass density shown
CCCCCC(C)=O | 806.81
CCCC(C)=O | 796.73
CC(C)=O | 778.63
CN(C)C=O [dimethylformamide] | 939.28

As a next step, examine the compound that follows.
Asked: Please indicate mass density recorded for CCC(C)=O
Given back: 794.55

----------
Details: 303.15 K; 101.33 kPa; Liquid; Sing-around technique in a fixed-path interferometer
Assay Endpoint: speed of sound (m/s)
Give just the number in m/s; leave the unit off.

Worked cases, speed of sound given:
CN(C)C=O [dimethylformamide] | 1438.8
CC(C)=O [acetone] | 1139.9
CCC(C)=O [butanone] | 1172

Asked: Indicate its recorded speed of sound; the molecule in question is CCCCCC(C)=O [2-heptanone]
Given back: 1244.4

Asked: Note down speed of sound recorded for CCCC(C)=O [pentan-2-one]
Given back: 1191.7

----------
Settings: 293.15 K; 101.33 kPa; Liquid; Vibrating tube method
We begin with a simple list: items and their reported mass density.
Write the value in kg/m3 as a bare number.

Before answering, review these 3 worked examples.
CC(C)=O | 790.19
CCCCCC(C)=O | 815.39
CCC(C)=O | 805.06

Asked: Annotate the molecule CN(C)C=O [dimethylformamide] with its measured mass density.
Given back: 948.82

Asked: Return mass density for the following molecule: CCCC(C)=O
Given back: 806.83

----------
Conditions: 293.15 K; 101.33 kPa; Liquid; Sing-around technique in a fixed-path interferometer
Assay Endpoint: speed of sound (m/s)
API: value field is a number in m/s; no unit string.

In the examples that follow, each entry is paired with its recorded speed of sound.
CC(C)=O [acetone] | 1183.6
CCCCCC(C)=O [2-heptanone] | 1282.1
CN(C)C=O [dimethylformamide] | 1476.7
CCC(C)=O [butanone] | 1212.6

Field: next molecule
Asked: Answer with the recorded speed of sound of CCCC(C)=O [pentan-2-one] only.
Given back: 1232.4

----------
Conditions: 298.15 K; 101.33 kPa; Liquid; Vibrating tube method
Assay Endpoint: mass density (kg/m3)
All answers are understood in kg/m3, so give the number only.

CCCCCC(C)=O | 811.08
CC(C)=O | 784.43
CN(C)C=O [dimethylformamide] | 944.06
CCCC(C)=O | 801.99

Next compound, mass density to be filled in.
Asked: Output measured mass density for this item: CCC(C)=O
Given back: 799.78

----------
Assay: refractive index (Na D-line) (dimensionless)
Details: 298.15 K; 101.33 kPa; Liquid; Standard Abbe refractometry
Assay Endpoint: refractive index
Respond using a number only.

CC(C)=O [acetone] | 1.35386
CCCC(C)=O [pentan-2-one] | 1.38793

Asked: Report refractive index, nothing else, for this compound: CCC(C)=O [butanone]
Given back: 1.37605

Asked: Tell me its refractive index given CCCCCC(C)=O [2-heptanone] as the entry.
Given back: 1.40688

Asked: Supply measured refractive index of CN(C)C=O [dimethylformamide] in your reply.
Given back: 1.4284

----------
Details: 298.15 K; 101.33 kPa; Liquid; Sing-around technique in a fixed-path interferometer
Assay Endpoint: speed of sound (m/s)
Please respond with the number in m/s and leave the unit unwritten.

Use these answered entries as a reference point.
CC(C)=O [acetone] | 1163.6
CN(C)C=O [dimethylformamide] | 1458.6
CCC(C)=O [butanone] | 1191.5
CCCCCC(C)=O [2-heptanone] | 1262.7

Note: attention shifts to another entry.
Asked: Provide speed of sound value for the following molecule: CCCC(C)=O [pentan-2-one]
Given back: 1211.9

----------
Test: refractive index (Na D-line) (dimensionless)
Settings: 293.15 K; 101.33 kPa; Liquid; Standard Abbe refractometry
Assay Endpoint: refractive index
Keep the answer to the number alone.

CC(C)=O [acetone] | 1.35845
CCCC(C)=O [pentan-2-one] | 1.39026
CN(C)C=O [dimethylformamide] | 1.43055

Next up:
Asked: Find the measured refractive index of CCC(C)=O [butanone] and report it.
Given back: 1.37872
